# System: Staph. aureus UC-76
Counter-ions that a name gives are not always drawn.
Consider the cut-off 0.03 mg/L. If the recorded MIC is strictly smaller, the label is class 1; if not, the label is class 0.

>>> assigned_label("CCN[C@@H](C)[C@@H]1CCN(c2nc3c(cc2F)c(=O)c(C(=O)O)cn3C2CC2)C1")
"class 1"
>>> assigned_label("Cc1c(F)c(N2CC[C@@H]([C@H](C)N)C2)cc2c1c(=O)c(C(=O)O)cn2C1CC1")
"class 1"
>>> assigned_label("CN[C@@H](C)[C@@H]1CCN(c2nc3c(cc2F)c(=O)c(C(=O)O)cn3-c2ccc(F)cc2F)C1 [Example 64, monohydrochloride]")
"class 1"
>>> assigned_label("CCN[C@@H](C)[C@H]1CCN(c2nc3c(cc2F)c(=O)c(C(=O)O)cn3C2CC2)C1")
"class 0"
>>> assigned_label("CN[C@@H](C)[C@@H]1CCN(c2c(F)c(N)c3c(=O)c(C(=O)O)cn(C4CC4)c3c2F)C1")
"class 1"
>>> assigned_label("CN[C@@H](C)[C@@H]1CCN(c2c(F)cc3c(=O)c(C(=O)O)cn(C4CC4)c3c2OC)C1")
"class 1"
>>> assigned_label("CN[C@H](C)[C@H]1CCN(c2nc3c(cc2F)c(=O)c(C(=O)O)cn3C2CC2)C1")
"class 0"
>>> assigned_label("CCOc1c(N2CC[C@@H]([C@H](C)NC)C2)c(F)cc2c(=O)c(C(=O)O)cn(C3CC3)c12")
"class 1"
>>> assigned_label("C[C@H]([C@H]1CCN(c2nc3c(cc2F)c(=O)c(C(=O)O)cn3C2CC2)C1)N(C)C")
"class 1"
>>> assigned_label("CCN[C@@H](C)[C@@H]1CCN(c2cc3c(c(N)c2F)c(=O)c(C(=O)O)cn3C2CC2)C1")
"class 1"
>>> assigned_label("COc1c(N2CC[C@@H]([C@H](C)N)C2)c(F)c(N)c2c(=O)c(C(=O)O)cn(C3CC3)c12")
"class 1"
>>> assigned_label("CN[C@@H](C)[C@@H]1CCN(c2c(F)c(N)c3c(=O)c(C(=O)O)cn(C4CC4)c3c2OC)C1")
"class 1"
>>> assigned_label("CN[C@@H](C)[C@H]1CCN(c2nc3c(cc2F)c(=O)c(C(=O)O)cn3C2CC2)C1")
"class 0"
>>> assigned_label("CN[C@@H](C)[C@@H]1CCN(c2nc3c(cc2F)c(=O)c(C(=O)O)cn3C2CC2)C1")
"class 1"

Data origin, for the record: patent US5563155A
